- Target Or Test System: T1, cynomolgus TGF-β RII/Fc (cynomolgus)
- T1 construct: extracellular domain; also called Cyno TGFBRII; Cyno TGFbRII
- Assay Details: SPR Biacore T200, receptor-Fc captured by anti-human IgG, dAb as analyte, 1:1 model
Listed here are binders together with their documented koff.
Kindly provide the numeric value in s⁻¹ only, without the unit symbol.

{"Binder": "DOM23h-439-35 (VHH, expressed from pC10) VHH: EVQLLESGGGLVQPGGSLRLSCAASGFTFGTDQMWWVRQAPGKGLEFVSRIDSPGGRTYYANSVKGRFTISRDNSKNTLYLQMNSLRAEDTAVYYCAKRQPAGVSGKYVDYWGQGTLVTVSS", "Reported": 0.000675}

Kindly review the next binder as well.
[Q] Field request: koff | item: DOM23h-439-43 (DOM23h-439-25 + C-terminal Alanine + 64R) (VHH, human VH dAb) VHH: EVQLLESGGGLVQPGGSLRLSCAASGFTFGTEQMWWVRQAPGKGLEFVSRIDSPGGRTYYADSVRGRFTISRDNSKNTLYLQMNSLRAEDTAVYYCAKRRPTGVSGTFYDYWGQGTLVTVSS
[A] 0.0012
